# protocolDescription: Plasma pharmacokinetics, multiple-ascending-dose phase 1 study
# Type: in vivo, human
# testConditions: human, plasma; 200 mg Q12h oral, day 10; geometric mean (%CV); read-out: Plasma AUC (AUC0–tau)
experimentalEndpoint: AUC (µg·h/mL)

>  <sampleSmiles>
O=c1cc(NCCCN[C@@H]2CCOc3c(Br)cc(Br)cc32)[nH]c2ccsc12

>  <experimentalEndpoint>
AUC

>  <obsValue>
2.5

$$$$

====

# protocolDescription: Plasma pharmacokinetics, multiple-ascending-dose phase 1 study
# Assay type: in vivo, human
# testConditions: human, plasma, oral, 600 mg, after first dose, day 1; range across the 3 dose groups (200, 400, 600 mg); read-out: median time to maximum concentration (Tmax)

>  <molecule>
O=c1cc(NCCCN[C@@H]2CCOc3c(Br)cc(Br)cc32)[nH]c2ccsc12 [CRS3123]

>  <Tmax>
2 to 3 h

$$$$

====

# protocolDescription: Plasma pharmacokinetics, multiple-ascending-dose phase 1 study
# Format: in vivo, human
# testConditions: human, plasma; 400 mg Q12h oral, day 10; geometric mean (%CV); read-out: Plasma AUC (AUC0–tau)
# Protocol: This study was conducted in full accordance with the Declaration of Helsinki and good clinical practices (GCP) at Quintiles Phase One Services in Overland Park, KS. […] After a screening period of up to 35 days, eligible subjects were admitted to the study center for baseline evaluations on day −1. […] During the inpatient period, subjects were monitored for safety and pharmacokinetics (PK). […]
experimentalEndpoint: AUC (ng·h/mL)

>  <sampleSmiles>
O=c1cc(NCCCN[C@@H]2CCOc3c(Br)cc(Br)cc32)[nH]c2ccsc12

>  <valueUnit>
ng·h/mL

>  <obsValue>
3200

$$$$

====

# protocolDescription: Plasma pharmacokinetics, multiple-ascending-dose phase 1 study
# Format: in vivo, human
# testConditions: human, plasma, oral; 400 mg Q12h, day 1; median; read-out: Plasma AUC(0-12)
experimentalEndpoint: AUC(0-t) (ng·h/mL)

>  <sampleSmiles>
O=c1cc(NCCCN[C@@H]2CCOc3c(Br)cc(Br)cc32)[nH]c2ccsc12

>  <obsValue>
2510

$$$$

====

# protocolDescription: Plasma pharmacokinetics, multiple-ascending-dose phase 1 study
# Type: in vivo, human
# testConditions: human, plasma, oral, 400 mg, 400 mg Q12h, day 10; median; read-out: Vz/F,ss

>  <compound>
O=c1cc(NCCCN[C@@H]2CCOc3c(Br)cc(Br)cc32)[nH]c2ccsc12 [CRS3123]

>  <valueUnit>
L

>  <Vd/F>
917

$$$$

====

# protocolDescription: Plasma pharmacokinetics, multiple-ascending-dose phase 1 study
# Assay type: in vivo, human
# testConditions: human, plasma, po, 200 mg, 200 mg Q12h oral, day 1; geometric mean (%CV); read-out: Plasma Cmax
# Experimental: This study was conducted in full accordance with the Declaration of Helsinki and good clinical practices (GCP) at Quintiles Phase One Services in Overland Park, KS. […] After a screening period of up to 35 days, eligible subjects were admitted to the study center for baseline evaluations on day −1. […] During the inpatient period, subjects were monitored for safety and pharmacokinetics (PK). […]
experimentalEndpoint: Cmax (ng/mL)

>  <sampleSmiles>
O=c1cc(NCCCN[C@@H]2CCOc3c(Br)cc(Br)cc32)[nH]c2ccsc12

>  <valueUnit>
ng/mL

>  <obsValue>
352

$$$$

====

# protocolDescription: Plasma pharmacokinetics, multiple-ascending-dose phase 1 study
# Format: in vivo, human
# testConditions: human, plasma, po, 400 mg, 400 mg Q12h oral, day 10; geometric mean (%CV); read-out: Plasma Cmax,ss

>  <molecule>
O=c1cc(NCCCN[C@@H]2CCOc3c(Br)cc(Br)cc32)[nH]c2ccsc12 [CRS3123]

>  <Cmax, µg/mL>
0.615

$$$$

====

# protocolDescription: Plasma pharmacokinetics, multiple-ascending-dose phase 1 study
# Assay type: in vivo, human
# testConditions: human, plasma, po, 200 mg, 200 mg Q12h oral, day 1; median (minimum, maximum); read-out: Plasma t1/2 (converted)
# Description: This study was conducted in full accordance with the Declaration of Helsinki and good clinical practices (GCP) at Quintiles Phase One Services in Overland Park, KS. […] After a screening period of up to 35 days, eligible subjects were admitted to the study center for baseline evaluations on day −1. […] During the inpatient period, subjects were monitored for safety and pharmacokinetics (PK). […]
experimentalEndpoint: half-life (min)

>  <compound>
O=c1cc(NCCCN[C@@H]2CCOc3c(Br)cc(Br)cc32)[nH]c2ccsc12 [CRS3123]

>  <experimentalEndpoint>
half-life

>  <obsValue>
178

$$$$

====

# protocolDescription: Plasma pharmacokinetics, multiple-ascending-dose phase 1 study
# Assay type: in vivo, human
# testConditions: human, plasma, po, 200 mg, 200 mg Q12h oral, day 1; median (minimum, maximum); read-out: Plasma Tmax
experimentalEndpoint: Tmax (h)

>  <molecule>
O=c1cc(NCCCN[C@@H]2CCOc3c(Br)cc(Br)cc32)[nH]c2ccsc12 [CRS3123]

>  <obsValue>
2

$$$$

====

# protocolDescription: Plasma pharmacokinetics, multiple-ascending-dose phase 1 study
# Type: in vivo, human
# testConditions: human, plasma, oral, after first dose, day 1; range across the 3 dose groups; read-out: geometric mean half-life (t1/2)

>  <sampleSmiles>
O=c1cc(NCCCN[C@@H]2CCOc3c(Br)cc(Br)cc32)[nH]c2ccsc12

>  <half-life>
3 to 4 h

$$$$

====

# protocolDescription: Plasma pharmacokinetics, multiple-ascending-dose phase 1 study
# Type: in vivo, human
# testConditions: human, plasma, oral, 600 mg, 600 mg Q12h, day 1; median; read-out: Plasma Cmax

>  <sampleSmiles>
O=c1cc(NCCCN[C@@H]2CCOc3c(Br)cc(Br)cc32)[nH]c2ccsc12

>  <Cmax>
642 ng/mL

$$$$

====

# protocolDescription: Plasma pharmacokinetics, multiple-ascending-dose phase 1 study
# Assay type: in vivo, human
# testConditions: human, plasma, oral, 600 mg, 600 mg Q12h, day 10; median; read-out: Plasma Cmax,ss

>  <sampleSmiles>
O=c1cc(NCCCN[C@@H]2CCOc3c(Br)cc(Br)cc32)[nH]c2ccsc12

>  <Cmax>
674 ng/mL

$$$$

====

# protocolDescription: Plasma pharmacokinetics, multiple-ascending-dose phase 1 study
# Type: in vivo, human
# testConditions: human, plasma, oral, 200 mg, 200 mg Q12h, day 10; geometric mean; read-out: Vz/F,ss
experimentalEndpoint: Vd/F

>  <compound>
O=c1cc(NCCCN[C@@H]2CCOc3c(Br)cc(Br)cc32)[nH]c2ccsc12 [CRS3123]

>  <obsValue>
591 L

$$$$

====

# protocolDescription: Plasma pharmacokinetics, multiple-ascending-dose phase 1 study
# Type: in vivo, human
# testConditions: human, plasma, oral, 400 mg, 400 mg Q12h, day 1; median; read-out: Plasma Cmax
experimentalEndpoint: Cmax (ng/mL)

>  <compound>
O=c1cc(NCCCN[C@@H]2CCOc3c(Br)cc(Br)cc32)[nH]c2ccsc12 [CRS3123]

>  <valueUnit>
ng/mL

>  <obsValue>
504

$$$$

====

# protocolDescription: Plasma pharmacokinetics, multiple-ascending-dose phase 1 study
# Format: in vivo, human
# testConditions: human, plasma, po, 200 mg, 200 mg Q12h oral, day 10; geometric mean (%CV); read-out: Plasma Cmax,ss

>  <sampleSmiles>
O=c1cc(NCCCN[C@@H]2CCOc3c(Br)cc(Br)cc32)[nH]c2ccsc12

>  <Cmax>
470 ng/mL

$$$$

====

# protocolDescription: Plasma pharmacokinetics, multiple-ascending-dose phase 1 study
# Format: in vivo, human
# testConditions: human, plasma, oral, 200 mg, 200 mg Q12h, day 10; geometric mean; read-out: Plasma t1/2,ss (converted)
experimentalEndpoint: half-life (h)

>  <compound>
O=c1cc(NCCCN[C@@H]2CCOc3c(Br)cc(Br)cc32)[nH]c2ccsc12 [CRS3123]

>  <obsValue>
4.71

$$$$

====

# protocolDescription: Plasma pharmacokinetics, multiple-ascending-dose phase 1 study
# Assay type: in vivo, human
# testConditions: human, plasma, po, 400 mg, 400 mg Q12h oral, day 10; median (minimum, maximum); read-out: Plasma t1/2,ss (converted)
# Description: This study was conducted in full accordance with the Declaration of Helsinki and good clinical practices (GCP) at Quintiles Phase One Services in Overland Park, KS. […] After a screening period of up to 35 days, eligible subjects were admitted to the study center for baseline evaluations on day −1. […] During the inpatient period, subjects were monitored for safety and pharmacokinetics (PK). […]
experimentalEndpoint: half-life (h)

>  <sampleSmiles>
O=c1cc(NCCCN[C@@H]2CCOc3c(Br)cc(Br)cc32)[nH]c2ccsc12

>  <obsValue>
5.01

$$$$

====

# protocolDescription: Plasma pharmacokinetics, multiple-ascending-dose phase 1 study
# Format: in vivo, human
# testConditions: human, plasma, po, 200 mg, 200 mg Q12h oral, day 10; median (minimum, maximum); read-out: Plasma Tmax,ss

>  <sampleSmiles>
O=c1cc(NCCCN[C@@H]2CCOc3c(Br)cc(Br)cc32)[nH]c2ccsc12

>  <Tmax (h)>
1.5

$$$$
